- Target system: hNav1.7 (Homo sapiens)
- Sequence (Q15858 whole entry): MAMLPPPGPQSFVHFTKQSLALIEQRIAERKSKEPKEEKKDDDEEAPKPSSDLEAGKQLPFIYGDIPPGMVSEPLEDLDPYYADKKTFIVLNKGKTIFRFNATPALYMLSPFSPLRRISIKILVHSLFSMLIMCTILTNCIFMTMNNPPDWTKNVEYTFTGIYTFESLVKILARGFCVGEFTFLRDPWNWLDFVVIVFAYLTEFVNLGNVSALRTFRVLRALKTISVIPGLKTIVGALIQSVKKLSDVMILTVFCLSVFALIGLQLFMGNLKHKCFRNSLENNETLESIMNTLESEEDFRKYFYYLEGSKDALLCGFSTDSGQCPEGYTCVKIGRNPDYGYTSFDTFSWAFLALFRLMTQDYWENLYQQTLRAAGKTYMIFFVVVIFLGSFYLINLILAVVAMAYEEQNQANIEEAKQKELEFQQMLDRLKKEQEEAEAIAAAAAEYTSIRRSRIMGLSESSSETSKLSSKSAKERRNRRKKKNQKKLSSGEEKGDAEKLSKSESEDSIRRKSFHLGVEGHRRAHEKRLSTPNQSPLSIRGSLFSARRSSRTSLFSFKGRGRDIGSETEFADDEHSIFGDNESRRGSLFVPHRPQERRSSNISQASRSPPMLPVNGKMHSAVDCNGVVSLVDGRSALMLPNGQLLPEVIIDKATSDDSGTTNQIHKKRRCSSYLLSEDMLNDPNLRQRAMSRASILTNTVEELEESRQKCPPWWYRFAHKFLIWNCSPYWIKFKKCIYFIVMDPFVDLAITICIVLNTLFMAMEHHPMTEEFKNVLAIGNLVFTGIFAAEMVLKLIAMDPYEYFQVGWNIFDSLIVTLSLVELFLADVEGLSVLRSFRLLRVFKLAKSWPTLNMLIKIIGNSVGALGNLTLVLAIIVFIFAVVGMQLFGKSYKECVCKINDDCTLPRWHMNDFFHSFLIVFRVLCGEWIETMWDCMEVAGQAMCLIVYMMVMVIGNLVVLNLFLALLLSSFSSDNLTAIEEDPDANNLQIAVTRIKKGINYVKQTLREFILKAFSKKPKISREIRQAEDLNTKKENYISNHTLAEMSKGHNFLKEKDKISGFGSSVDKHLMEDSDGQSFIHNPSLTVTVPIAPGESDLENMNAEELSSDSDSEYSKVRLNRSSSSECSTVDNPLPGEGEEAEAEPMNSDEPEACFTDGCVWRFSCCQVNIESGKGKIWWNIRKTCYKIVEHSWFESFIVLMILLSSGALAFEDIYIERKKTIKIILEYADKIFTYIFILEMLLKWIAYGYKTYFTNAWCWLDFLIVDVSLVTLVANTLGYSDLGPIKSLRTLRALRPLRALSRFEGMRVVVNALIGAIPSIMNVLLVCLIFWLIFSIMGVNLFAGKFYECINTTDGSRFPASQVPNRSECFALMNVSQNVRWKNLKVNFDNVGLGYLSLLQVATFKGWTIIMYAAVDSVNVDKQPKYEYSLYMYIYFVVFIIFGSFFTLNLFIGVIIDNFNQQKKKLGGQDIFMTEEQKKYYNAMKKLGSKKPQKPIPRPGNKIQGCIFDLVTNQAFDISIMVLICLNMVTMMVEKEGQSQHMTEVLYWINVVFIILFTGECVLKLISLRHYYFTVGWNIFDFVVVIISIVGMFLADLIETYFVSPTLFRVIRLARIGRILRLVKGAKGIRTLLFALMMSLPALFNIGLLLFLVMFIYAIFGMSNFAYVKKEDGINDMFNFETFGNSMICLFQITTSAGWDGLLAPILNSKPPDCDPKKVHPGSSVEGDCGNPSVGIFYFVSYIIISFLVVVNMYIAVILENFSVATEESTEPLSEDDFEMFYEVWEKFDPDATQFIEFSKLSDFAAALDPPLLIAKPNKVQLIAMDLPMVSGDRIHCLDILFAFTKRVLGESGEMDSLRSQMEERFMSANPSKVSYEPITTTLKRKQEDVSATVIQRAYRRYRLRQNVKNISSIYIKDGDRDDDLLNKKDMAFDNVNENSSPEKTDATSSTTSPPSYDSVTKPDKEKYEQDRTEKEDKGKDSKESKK
pIC50: −log10 of the molar value.
Observation type: pIC50

Give pIC50 (hNav1.7 (Homo sapiens)) of the following molecule: COc1ccc(C(=O)N(CC(C)(C)C)c2cccc(C)n2)c(N2CCC(c3cc4ccc([C@@H](CC(=O)O)C5CC5)cc4o3)CC2)c1 < 4.52

====

- Target system: human GPR40 (Homo sapiens, UniProt O14842)
- Construct: HEK293 cells stably overexpressing full length human GPR40; expressed in transfected cells
- Assay protocol: Human GPR40 b-arrestin
- Format: cell-based
Listed here are molecules together with their documented EC50.
I only need the number, in nM, no unit after it.

Smiles input	Units label	EC50
COc1ccc(F)c(-c2ccc(COc3cccc([C@@H](CC(=O)O)C4CC4)c3)cc2C2=CCCC2(C)C)c1	nM	16
CC#C[C@@H](CC(=O)O)c1ccc(OCc2ccc(CN3CCC4(C=Cc5ccccc54)CC3)cc2)cc1	nM	8.7

Next molecule, please.
# EC50 lookup, item COc1ccc(C(=O)N(CC(C)(C)C)c2cccc(C)n2)c(N2CCC(c3cc4ccc([C@@H](CC(=O)O)C5CC5)cc4o3)CC2)c1 1.9

====

- Target system: hGLUCR (Homo sapiens, UniProt P47871)
- Sequence (P47871 26-477): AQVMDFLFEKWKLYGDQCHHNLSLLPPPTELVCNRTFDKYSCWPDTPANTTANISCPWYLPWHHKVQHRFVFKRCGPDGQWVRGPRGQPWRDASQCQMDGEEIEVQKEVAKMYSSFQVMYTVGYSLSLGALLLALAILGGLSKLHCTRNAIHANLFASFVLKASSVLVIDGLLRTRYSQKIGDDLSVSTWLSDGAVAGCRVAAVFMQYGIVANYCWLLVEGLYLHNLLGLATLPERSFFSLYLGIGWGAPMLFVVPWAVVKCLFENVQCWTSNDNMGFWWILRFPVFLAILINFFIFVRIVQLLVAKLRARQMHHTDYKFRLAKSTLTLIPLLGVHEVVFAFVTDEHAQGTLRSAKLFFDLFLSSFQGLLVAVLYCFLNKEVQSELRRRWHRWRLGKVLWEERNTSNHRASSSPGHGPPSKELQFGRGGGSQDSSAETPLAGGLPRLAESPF
Observation type: Ki

Give Ki (hGLUCR (Homo sapiens, UniProt P47871)) of the following compound: COc1ccc(C(=O)N(CC(C)(C)C)c2cccc(C)n2)c(N2CCC(c3cc4ccc([C@@H](CC(=O)O)C5CC5)cc4o3)CC2)c1 [compound 1] > 10 µM

====

Listed here are molecules together with their documented pEC50.
- Target system: human GPR40 (Homo sapiens)
- Construct: HEK293 cells stably overexpressing full length human GPR40; expressed in transfected cells
- Assay protocol: Human GPR40 Calcium (Supplementary Table 1)
- Type: cell-based
// scale note: pEC50 = -log10(conc_M); give the bare number

Smiles input	Measured number
CC#C[C@@H](CC(=O)O)c1ccc(OCc2ccc(CN3CCC4(C=Cc5ccccc54)CC3)cc2)cc1	8.04

Give pEC50 (human GPR40 (Homo sapiens)) of the following molecule: COc1ccc(F)c(-c2ccc(COc3cccc([C@@H](CC(=O)O)C4CC4)c3)cc2C2=CCCC2(C)C)c1 8.77

====

- Target system: hRXRalpha (Homo sapiens)
- Sequence (P19793 1-462): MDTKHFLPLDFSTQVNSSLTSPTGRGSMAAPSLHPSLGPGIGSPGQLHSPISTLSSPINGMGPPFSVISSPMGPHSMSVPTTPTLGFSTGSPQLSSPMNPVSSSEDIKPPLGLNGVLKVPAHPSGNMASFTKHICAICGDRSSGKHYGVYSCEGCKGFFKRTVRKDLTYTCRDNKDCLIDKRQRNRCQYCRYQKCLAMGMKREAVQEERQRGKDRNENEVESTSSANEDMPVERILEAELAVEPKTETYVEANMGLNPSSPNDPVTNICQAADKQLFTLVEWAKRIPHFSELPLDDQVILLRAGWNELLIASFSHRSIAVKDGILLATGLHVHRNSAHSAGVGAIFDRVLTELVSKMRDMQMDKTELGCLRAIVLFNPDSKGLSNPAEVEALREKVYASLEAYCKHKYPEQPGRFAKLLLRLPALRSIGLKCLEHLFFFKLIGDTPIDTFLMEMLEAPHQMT
pKi: −log10 of the molar value.
Observation type: pKi

# pKi lookup, item COc1ccc(C(=O)N(CC(C)(C)C)c2cccc(C)n2)c(N2CCC(c3cc4ccc([C@@H](CC(=O)O)C5CC5)cc4o3)CC2)c1 [compound 1] < 5.00

====

Listed here are compounds together with their documented pEC50.
- Target system: Rat GPR40 (Rattus norvegicus)
- Assay protocol: Rat GPR40 b-arrestin
// scale note: pEC50 = -log10(conc_M); give the bare number

Sample records with pEC50:
Smiles input	pEC50
COc1ccc(C(=O)N(CC(C)(C)C)c2cccc(C)n2)c(N2CCC(c3cc4ccc([C@@H](CC(=O)O)C5CC5)cc4o3)CC2)c1	8.68
Cc1cc(OCCCS(C)(=O)=O)cc(C)c1-c1cccc(COc2ccc3c(c2)OC[C@H]3CC(=O)O)c1	7.44
COc1ccc(F)c(-c2ccc(COc3cccc([C@@H](CC(=O)O)C4CC4)c3)cc2C2=CCCC2(C)C)c1	6.98

Give pEC50 (Rat GPR40 (Rattus norvegicus)) of the following compound: CC#C[C@@H](CC(=O)O)c1ccc(OCc2ccc(CN3CCC4(C=Cc5ccccc54)CC3)cc2)cc1 8.70

====

- Target system: GPR40 Y114F (Homo sapiens, UniProt O14842, Y114F)
- Assay protocol: cAMP accumulation assay, Y114F mutant
Observation type: EC50
Answer with the number, then the unit.

# EC50 lookup, item COc1ccc(C(=O)N(CC(C)(C)C)c2cccc(C)n2)c(N2CCC(c3cc4ccc([C@@H](CC(=O)O)C5CC5)cc4o3)CC2)c1 [compound 1] 11 µM

====

- Assay protocol: Mouse hepatocyte clearance
- Format: in vitro ADME
- Recorded conditions: hepatocytes, with ABT (concentration not stated), read-out: Mouse Hepatocyte Clearance ABT % Recovery
Observation type: recovery (%)
I only need the number, in %, no unit after it.

# recovery lookup, item COc1ccc(C(=O)N(CC(C)(C)C)c2cccc(C)n2)c(N2CCC(c3cc4ccc([C@@H](CC(=O)O)C5CC5)cc4o3)CC2)c1 92.8

====

Target sequence: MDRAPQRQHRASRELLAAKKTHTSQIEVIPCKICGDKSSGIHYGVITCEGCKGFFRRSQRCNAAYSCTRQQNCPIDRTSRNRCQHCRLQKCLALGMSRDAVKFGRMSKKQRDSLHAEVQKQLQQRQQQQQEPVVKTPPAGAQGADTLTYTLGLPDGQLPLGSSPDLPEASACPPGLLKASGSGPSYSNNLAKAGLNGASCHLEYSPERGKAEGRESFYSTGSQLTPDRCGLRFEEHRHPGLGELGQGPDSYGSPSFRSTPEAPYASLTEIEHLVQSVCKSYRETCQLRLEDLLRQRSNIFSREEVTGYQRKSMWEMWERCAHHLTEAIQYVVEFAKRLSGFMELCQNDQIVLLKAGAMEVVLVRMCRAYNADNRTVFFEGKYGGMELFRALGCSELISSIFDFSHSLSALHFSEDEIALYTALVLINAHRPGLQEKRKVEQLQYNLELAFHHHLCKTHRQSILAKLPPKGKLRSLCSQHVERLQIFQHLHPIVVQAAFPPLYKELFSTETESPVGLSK
pKi: −log10 of the molar value.
Observation type: pKi

# pKi lookup, item COc1ccc(C(=O)N(CC(C)(C)C)c2cccc(C)n2)c(N2CCC(c3cc4ccc([C@@H](CC(=O)O)C5CC5)cc4o3)CC2)c1 < 4.70

====

- Target system: WT GPR40 (Homo sapiens, UniProt O14842)
- Sequence (O14842 whole entry): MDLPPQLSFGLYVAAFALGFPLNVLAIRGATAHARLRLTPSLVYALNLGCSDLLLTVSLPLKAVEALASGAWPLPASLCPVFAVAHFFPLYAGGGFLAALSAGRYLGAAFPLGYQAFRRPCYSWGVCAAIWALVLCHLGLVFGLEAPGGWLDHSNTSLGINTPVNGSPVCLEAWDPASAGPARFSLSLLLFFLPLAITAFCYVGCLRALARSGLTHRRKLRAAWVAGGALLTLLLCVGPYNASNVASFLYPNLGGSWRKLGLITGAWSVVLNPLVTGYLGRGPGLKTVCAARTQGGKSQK
- Assay protocol: cAMP accumulation assay (CRE/luc2P), wild type GPR40
- Recorded conditions: cAMP accumulation EC50, GPR40-Gαs signaling, stably transfected cells, Fig. 1c, n = 6
Observation type: EC50

# EC50 lookup, item COc1ccc(C(=O)N(CC(C)(C)C)c2cccc(C)n2)c(N2CCC(c3cc4ccc([C@@H](CC(=O)O)C5CC5)cc4o3)CC2)c1 [compound 1] ~126 nM

====

- Target system: hM1 (Homo sapiens, UniProt P11229)
Observation type: IC50

Give IC50 (hM1 (Homo sapiens, UniProt P11229)) of the following molecule: COc1ccc(C(=O)N(CC(C)(C)C)c2cccc(C)n2)c(N2CCC(c3cc4ccc([C@@H](CC(=O)O)C5CC5)cc4o3)CC2)c1 [compound 1] > 10 µM

====

- Assay protocol: Dog hepatocyte clearance
- Type: in vitro ADME
- Recorded conditions: hepatocytes, no ABT, read-out: Dog Hepatocyte Clearance no ABT Intrinsic Clearance
Observation type: hepatocyte CLint (µL/min/1e6 cells)
I only need the number, in µL/min/1e6 cells, no unit after it.

# hepatocyte CLint lookup, item COc1ccc(C(=O)N(CC(C)(C)C)c2cccc(C)n2)c(N2CCC(c3cc4ccc([C@@H](CC(=O)O)C5CC5)cc4o3)CC2)c1 31.4

====

- Target system: hD1 (Homo sapiens)
- Assay protocol: hD1 cAMP
- Format: cell-based
- Recorded conditions: read-out: hD1 cAMP Rel EC50
Observation type: EC50

Give EC50 (hD1 (Homo sapiens)) of the following compound: COc1ccc(C(=O)N(CC(C)(C)C)c2cccc(C)n2)c(N2CCC(c3cc4ccc([C@@H](CC(=O)O)C5CC5)cc4o3)CC2)c1 > 80 µM

====

- Target system: human GPR40 (A2 site) (Homo sapiens, UniProt O14842)
- Construct: full length recombinant human GPR40 (GPR40) cDNA; expressed in transfected cells; host or cells: HEK 293, stably transfected; crude cell surface membranes
- Sequence (O14842 whole entry): as above
- Assay protocol: A2 site radioligand binding with [3H]-AM-1638
- Recorded conditions: competitive radioligand binding, membranes from stably transfected cells, Fig. 1a; read-out: Ki in [3H]-AM-1638 binding
Observation type: pKi
// scale note: pKi = -log10(conc_M); give the bare number

# pKi lookup, item COc1ccc(C(=O)N(CC(C)(C)C)c2cccc(C)n2)c(N2CCC(c3cc4ccc([C@@H](CC(=O)O)C5CC5)cc4o3)CC2)c1 [compound 1] 9.09

Source: paper PMC5917010
